Reported Potency is given for each of the following molecules.
- system.name: Cytochrome P450 3A4 (Homo sapiens)
- test.summary: Cytochrome P450 Family 3 Subfamily A Member 4 (CYP3A4) small molecule antagonists: luciferase reporter qHTS assay (AID 1671201); note: potency is the fitted concentration of half-maximal effect; nearly all actives have a fitted effect of over 50% in size
- condition.details: P450-Glo CYP3A4 enzyme, luciferin luminescence, 1 h; series mostly up to 115 µM
Records with an inconclusive call do not appear. Active and inactive are the calls of the source. Calls come from the whole dose curve; as a rule, active = well fitted inhibition curve with a large enough effect in the repeat runs; inconclusive = weak or mixed curves; inactive = no such curve, though single readings can be large or run the other way.
outcome.measure: Potency

1) C[Si]1(C)N[Si](C)(C)N[Si](C)(C)N1	6.33 µM (active)
2) Nc1c(NC/C=C\COc2cc(CN3CCCCC3)ccn2)c(=O)c1=O	6.74 µM (active)
3) COc1ccc(OC)c(NC(=O)CC(C)=O)c1	22.4 µM (active)
4) C=CCOC(=O)c1ccc(C(=O)OCC=C)c(C(=O)OCC=C)c1	1.78 µM (active)
5) CO[Si](CCCCl)(OC)OC	3.51 µM (active)
6) C=CCOc1cc(Cl)ccc1C(=O)NCCN(CC)CC	17.4 µM (active)

====

- test.summary: qHTS assay to test for compound auto fluorescence at 590 nm (red) in HepG2 cell free culture (AID 720684); note: % is set by controls: 0 for no effect and ±100 for the full control effect
- condition.details: cell-free medium autofluorescence, red 540/590 nm; series mostly up to 91.3 µM
- From the text: U.S. Tox21 Program National Center for Advancing Translational Sciences [NCATS] NIH Chemical Genomics Center [NCGC] U.S. Environmental Protection Agency [EPA] National Institutes of Environmental Health Sciences [NIEHS] National Toxicology Program [NTP] U.S. Food and Drug Administration [FDA] Tox21 Assay Overview: Compound auto fluorescence often interferes with screening of the compound library against various biological targets and signaling pathways. […] This assay includes the red fluorescence data. […]
Active and inactive are the calls of the source. Calls come from the whole dose curve; as a rule, active = well fitted curve in the direction sought with a large enough effect in the repeat runs; inconclusive = weak or mixed curves; inactive = flat fitted curve, though single readings scatter.
outcome.measure: fluorescence, % of Rose Bengal

1. Cc1ccccc1OCC1CO1 (stereo unspecified)	inactive
2. C=CCOc1c(Br)cc(C(C)(C)c2cc(Br)c(OCC=C)c(Br)c2)cc1Br	inactive
3. CCCCCCCCCCCCCCCC(=O)NCCO	inactive
4. O=C(O)Cc1cccc(-c2cc(CCCCCCc3ccc(O[C@H]4O[C@H](CO)[C@@H](O)[C@H](O)[C@@H]4O)c(-c4cccc(CC(=O)O)c4)c3)ccc2O[C@H]2O[C@H](CO)[C@@H](O)[C@H](O)[C@@H]2O)c1	inactive
5. C=C(C)C(=O)OCCCCCCOC(=O)C(=C)C	inactive
6. Cc1ccccc1N1CCN(CCc2nnc3n2CCCC3)CC1	inactive
7. C[N+](C)(C)CC(O)CCl (stereo unspecified)	inactive
8. CC1=NN(c2ccc(S(=O)(=O)O)cc2)C(=O)C1N=Nc1ccccc1 (stereo unspecified)	inactive
9. C[C@H](CCC(=O)NCC(=O)O)[C@H]1CC[C@H]2[C@@H]3[C@H](O)C[C@@H]4C[C@H](O)CC[C@]4(C)[C@H]3C[C@H](O)[C@]12C	inactive
10. C=COCCOCCOC=C	inactive
11. C=CCCCCCCCCCCC	0.0242% [at 3.72 µM] (inactive)

====

- system.name: Progesterone receptor (Homo sapiens)
- test.summary: qHTS assay to identify small molecule agonists of the progesterone receptor (PR) signaling pathway (AID 1346784); note: nearly all actives have a fitted effect of over 30% in size
- condition.details: PR-UAS-bla HEK293T, beta-lactamase FRET ratio, 16 h; series mostly up to 92.4 µM
- Text: U.S. Tox21 Program National Center for Advancing Translational Sciences [NCATS] NIH Chemical Genomics Center [NCGC] U.S. Environmental Protection Agency [EPA] National Institutes of Environmental Health Sciences [NIEHS] National Toxicology Program [NTP] U.S. Food and Drug Administration [FDA] […] Endocrine disrupting chemicals (EDCs) and their interactions with steroid hormone receptors like PR causes disruption of normal endocrine function. […]
Inconclusive results are not listed. Active and inactive are the calls of the source. Calls follow the shape of the full dose curve.
Classes used: T = active, F = inactive

1. CC1=CC[C@H](CC=O)C1(C)C	F
2. O=[Si]=O	F
3. CCCOCCOCCOCCO	F
4. Nc1ccc(C(=O)OCC(O)CO)cc1 (centres undefined)	F
5. O=S1(=O)CCCC1	F
6. Cc1ccccc1N1CCN(CCc2nnc3n2CCCC3)CC1	F
7. Cc1nc([N+](=O)[O-])cn1-c1ccc([N+](=O)[O-])cc1	F
8. CCOC(=O)C(C)(C)C	T
9. CCCCC(CC)COC(=O)c1ccccc1 (centres undefined)	F
10. Cc1ccccc1C(=O)N1CC/C(=N\OS(=O)(=O)O)c2ccc(Cl)cc21	F
11. CN(C1CCCCC1)S(=O)(=O)c1ccccc1N	F
12. CC(=O)c1ccc(OCC(=O)N2CCCCC2)cc1	F
13. C=CC(C)(O)CC/C=C(\C)CC (centres undefined)	F
14. O=C(O)CCNC(=O)c1ccccc1	F
15. O=C(COCCOCCOCC(=O)Nc1c(I)cc(I)c(C(=O)O)c1I)Nc1c(I)cc(I)c(C(=O)O)c1I	F
16. CCNC(=O)/C=C/c1cccc(Br)c1	F
17. CCN(CC)C(=O)C1CN2CCc3cc(OC)c(OC)cc3C2CC1OC(C)=O (centres undefined)	F
18. O=C(Oc1ccccc1C(=O)O)c1ccccc1O	F
19. CCCCCC1CCCC(=O)O1 (centres undefined)	F
20. CC(C)CCC(=O)CCC(C)C	F
21. COC(OC)C(C)c1ccccc1 (centres undefined)	F
22. CC(C)COC(=O)/C=C/c1ccccc1	F
23. COC(=O)CCC(=O)O	F
24. CC(C)(C)NCCO	F
25. Cc1cccc(Nc2ccncc2S(=O)(=O)NC(=O)NC(C)C)c1	F
26. CCOC(=O)OCC/C(SC(=O)OCC)=C(\C)N(C=O)Cc1cnc(C)nc1N	F
27. CC(C)COC(=O)CC(C(=O)OCC(C)C)S(=O)(=O)O (centres undefined)	F
28. FC(F)(F)/C(=N\OCC1OCCO1)c1ccc(Cl)cc1	F
29. CCOc1ccc(NC(=O)OC(C)C)cc1OCC	F

====

- test.summary: qHTS assay to identify small molecule agonists of H2AX (AID 1224845); note: % is set by controls: 0 for no effect and ±100 for the full control effect
- condition.details: CHO-K1 phospho-H2AX Ser139 HTRF, 3 h; series mostly up to 154 µM
Inconclusive results are not listed. The source made the active and inactive calls. The call rests on the fitted dose curve; in most records, active means well fitted activation curve with a large enough effect in the signal ratio in the repeat runs (not every such curve was filed as active); inconclusive means weak or mixed curves; inactive means flat fitted curve, though single readings scatter; the % refers to the signal ratio.
outcome.measure: activation (H2AX phosphorylation)

1. C=C[C@@H](C)CCC=C(C)C	inactive
2. C[C@H](CCC(=O)NCC(=O)O)[C@H]1CC[C@H]2[C@@H]3[C@H](O)C[C@@H]4C[C@H](O)CC[C@]4(C)[C@H]3C[C@H](O)[C@]12C	inactive
3. Cn1c(=O)c2c(ncn2CC2OCCO2)n(C)c1=O	inactive
4. O=S1(=O)CCCC1	inactive
5. CC(=O)/C=C/c1ccco1	inactive
6. CCCCCCCCCCCCCCCC(=O)NCCO	inactive
7. CCC(=O)OCCC(C)CCC=C(C)C (stereo not drawn)	inactive
8. CCCCOC(=O)C(=O)OCCCC	inactive

====

- test.summary: qHTS assay for small molecule agonists of the antioxidant response element (ARE) signaling pathway (AID 743202); note: % is set by controls: 0 for no effect and ±100 for the full control effect
- condition.details: HepG2 ARE-bla reporter, beta-lactamase FRET, 16 h; series mostly up to 73.3 µM
Records with an inconclusive call do not appear. Activity calls are given as the source filed them. Calls come from the whole dose curve; as a rule, active = well fitted activation curve with a large enough effect in the signal ratio in the repeat runs (not every such curve was filed as active); inconclusive = weak or mixed curves, or effect the other way; inactive = no such curve, though single readings can be large or run the other way; the % refers to the signal ratio.
outcome.measure: activation

1. C=CCOCC(CO)(COCC=C)COCC=C	inactive
2. COc1cc2c(Nc3ccc(Br)cc3F)ncnc2cc1OCC1CCN(C)CC1	inactive
3. CCC(C)(C)C1CCC(=O)CC1	inactive
4. CCCCCCCCCCCCCCCCI	inactive
5. C=C[C@@H](C)CCC=C(C)C	inactive
6. COc1cc(C=O)ccc1OC(=O)C(C)C	inactive
7. CC(=O)c1ccc(OCC(=O)N2CCCCC2)cc1	inactive
8. CN=C(NC#N)NCCSCc1csc(N=C(N)N)n1	inactive
9. O=C1OC(=O)c2ccccc21	inactive
10. O=C(/C=C/c1ccccc1)NCCO	inactive
11. CCC1Nc2cc(Cl)c(S(N)(=O)=O)cc2S(=O)(=O)N1 (centres undefined)	inactive
12. N#CCCOCCOCCC#N	inactive
13. Nc1ccnc(=O)[nH]1	inactive
14. O=C1CC[C@H](C(=O)N2CCCCC2)N1	inactive

====

- system.name: Voltage-gated inwardly rectifying potassium channel KCNH2 (Homo sapiens)
- test.summary: Human Ether-a-go-go-Related Gene (hERG) channel small molecule antagonists: fluorescence cell-based qHTS assay (AID 1671200);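 note: hERG-expressing U2OS cells given a thallium stimulus after FluxOR II dye loading; % is set by controls: 0 for no effect and ±100 for the full control effect; nearly all actives have a fitted effect of over 50% in size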
- condition.details: hERG-U2OS cells, FluxOR thallium flux fluorescence; series mostly up to 76.8 µM
Inconclusive results are not listed. Activity calls are given as the source filed them. Calls follow the shape of the dose curve; as a rule, active = well fitted inhibition curve with a large enough effect in the repeat runs; inconclusive = weak or mixed curves; inactive = flat fitted curve, though single readings scatter.
outcome.measure: activity change, negative = inhibition

1) O=C1c2ccccc2-c2ccccc21	inactive
2) CCOC(=O)C(C)(C)C	inactive
3) Cc1ccc(C(=O)C(=O)O)cc1C	inactive
4) CCOC(=O)CC#N	inactive
5) Cc1cccc(Nc2ccncc2S(=O)(=O)NC(=O)NC(C)C)c1	inactive
6) BrC/C=C/CBr	3.44% [at 15.8 µM] (inactive)
7) NC(=O)NC(=O)Cc1ccccc1	inactive
8) CCCCCCCCCOCC1CO1 (stereo not drawn)	inactive
